assayedTarget: Genome polyprotein (dengue virus type 2) (UniProt P29990)
experimentalDetails: Inhibition of Dengue virus 2 NS2B-NS3 protease using Abz-Nle-Lys-Arg-Arg-Ser-Tyr(3-NO2)-NH2 as substrate at 50 uM preincubated with enzyme for 15 mins followed by substrate addition and measured for 15 mins by FRET assay relative to control
testConditions: time 30.0 min
Residues, ends and D or L forms follow the SMILES beside them. *: point of attachment. NHBn = c1ccc(CN*)cc1; Bz = O=C(c1ccccc1)*
So basically: inhibition at 60% or higher? That is YES. Lower than 60%? That is NO.

{"compound": "N=C(N)NCCC[C@H](NC(=O)c1ccccc1)C(=O)N[C@@H](CCCCN)C(=O)NCCc1ccc(OCc2ccccc2)cc1", "classAssignment": "YES"}
{"compound": "NCCCC[C@H](NC(=O)[C@@H](NC(=O)c1ccccc1)c1ccc(OCc2ccccc2)cc1)C(=O)N[C@@H](C(N)=O)c1ccc(OCc2ccccc2)cc1", "classAssignment": "YES"}
{"compound": "N=C(N)Nc1ccc(C[C@H](NC(=O)[C@@H](NC(=O)c2ccccc2)c2ccc(OCc3ccccc3)cc2)C(=O)N[C@@H](C(N)=O)c2ccc(OCc3ccccc3)cc2)cc1", "classAssignment": "YES"}
{"compound": "N=C(N)NCCC[C@H](NC(=O)c1ccccc1)C(=O)N[C@@H](CCCCN)C(=O)NCc1ccccc1 (Bz-Arg-Lys-NHBn)", "classAssignment": "NO"}
{"compound": "N=C(N)NCCC[C@H](NC(=O)c1ccccc1)C(=O)N[C@@H](CCCCN)C(=O)NCc1ccc(OCc2ccccc2)cc1", "classAssignment": "YES"}
{"compound": "CC[C@@H](C)[C@H](NC(=O)[C@H](NC(=O)[C@H](CCCCN)NC(=O)[C@H](CCCNC(=N)N)NC(=O)c1ccccc1)c1ccc(OCc2ccccc2)cc1)C(N)=O", "classAssignment": "NO"}
{"compound": "N=C(N)NCCC[C@H](NC(=O)c1ccccc1)C(=O)N[C@@H](Cc1ccc(N)cc1)C(=O)NCc1ccc(OCc2ccccc2)cc1", "classAssignment": "YES"}
{"compound": "N=C(N)NCCC[C@H](NC(=O)c1ccccc1)C(=O)N[C@H](Cc1ccc(N)cc1)C(=O)NCc1ccc(OCc2ccccc2)cc1", "classAssignment": "NO"}
{"compound": "NCCCC[C@H](NC(=O)c1ccccc1)C(=O)N[C@H](C(=O)N[C@H](C(N)=O)C1CCCCC1)c1ccc(OCc2ccccc2)cc1", "classAssignment": "YES"}
{"compound": "N=C(N)NCCC[C@H](NC(=O)c1ccccc1)C(=O)N[C@@H](CCCCN)C(=O)N[C@@H](C(=O)N[C@H](C(N)=O)C1CCCCC1)c1ccc(OCc2ccccc2)cc1", "classAssignment": "YES"}
{"compound": "NCCCC[C@H](NC(=O)c1ccccc1)C(=O)N[C@H](Cc1ccc(N)cc1)C(=O)NCc1ccc(OCc2ccccc2)cc1", "classAssignment": "YES"}
